Here is a set of compounds with reported pIC50 for Cyclin-dependent kinase 9 (Homo sapiens, UniProt P50750), compiled from the literature.
pIC50: −log10 of the molar value.
ASSAY ENDPOINT: pIC50

Some compounds with recorded pIC50:
CCCn1cc(-c2ccnc(Nc3cccc(S(N)(=O)=O)c3)n2)c2ccnc(Cl)c21 : 8.07
CC1(C)Cc2c(-c3cc(NC(=O)[C@H]4CCC[C@@H](c5ccncc5)C4)ncc3Cl)cnn2C1 (single isomer, unassigned) : 8.55
CC(C)N1CCOc2c(F)cc(-c3nc(Nc4ccc(N5CCC(O)CC5)cn4)ncc3F)cc21 : 6.61
CCCn1cc(-c2ccnc(Nc3ccc(C)c(S(=O)(=O)N4CCOCC4)c3)n2)c2ccncc21 : 9.40
C[C@@H](C(=O)Nc1cc(-c2cnn3c2CC(C)(C)C3)c(Cl)cn1)c1cccc(C(N)=O)c1 : 8.57

P. CC(=O)N[C@@H]1CCC[C@H](C(=O)Nc2cc(-c3cc(C#N)c4n3CC(C)(C)C4)c(F)cn2)C1
Q. CC(=O)N[C@@H]1CCC[C@H](C(=O)Nc2cc(-c3cc(C(N)=O)c4n3CC(C)(C)C4)c(F)cn2)C1
Quick one: lower pIC50, P or Q ? Field: selected label. Fill in the label of the entry you choose.
Q
